Each record here notes measured Inhibition of Maximal Response.
measurement-target: PTHR1 receptor
Sequence (P25961 whole entry): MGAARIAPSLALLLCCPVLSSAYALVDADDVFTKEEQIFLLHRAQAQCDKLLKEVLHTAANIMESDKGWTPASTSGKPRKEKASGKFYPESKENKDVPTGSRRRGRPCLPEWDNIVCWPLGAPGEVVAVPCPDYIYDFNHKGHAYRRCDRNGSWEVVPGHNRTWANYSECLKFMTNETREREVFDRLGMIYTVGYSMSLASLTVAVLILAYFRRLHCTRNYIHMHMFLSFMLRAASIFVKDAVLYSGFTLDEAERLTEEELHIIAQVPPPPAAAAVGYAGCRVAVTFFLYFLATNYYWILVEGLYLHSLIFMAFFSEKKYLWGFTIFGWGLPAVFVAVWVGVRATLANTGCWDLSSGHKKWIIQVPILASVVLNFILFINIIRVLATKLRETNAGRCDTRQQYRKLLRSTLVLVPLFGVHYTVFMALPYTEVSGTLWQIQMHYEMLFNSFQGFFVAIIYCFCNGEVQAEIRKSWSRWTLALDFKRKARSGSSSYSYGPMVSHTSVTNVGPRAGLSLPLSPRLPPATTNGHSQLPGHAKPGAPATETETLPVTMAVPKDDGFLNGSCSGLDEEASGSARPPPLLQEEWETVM
* marks the point of attachment. Palmitoyl = CCCCCCCCCCCCCCCC(=O)*
All answers are understood in %, so give the number only.

Palmitoyl-LAYFRRLHSTRN-NH2 (SMILES CCCCCCCCCCCCCCCC(=O)N[C@@H](CC(C)C)C(=O)N[C@@H](C)C(=O)N[C@@H](Cc1ccc(O)cc1)C(=O)N[C@@H](Cc1ccccc1)C(=O)N[C@@H](CCCNC(=N)N)C(=O)N[C@@H](CCCNC(=N)N)C(=O)N[C@@H](CC(C)C)C(=O)N[C@@H](Cc1c[nH]cn1)C(=O)N[C@@H](CO)C(=O)N[C@H](C(=O)N[C@@H](CCCNC(=N)N)C(=O)N[C@@H](CC(N)=O)C(N)=O)[C@@H](C)O) [Compound 14]    15.2

We now examine a further binder.
Any idea what its Inhibition of Maximal Response is? The binder is Palmitoyl-TNAGRSDTRQQARKLL-NH2 (SMILES CCCCCCCCCCCCCCCC(=O)N[C@H](C(=O)N[C@@H](CC(N)=O)C(=O)N[C@@H](C)C(=O)NCC(=O)N[C@@H](CCCNC(=N)N)C(=O)N[C@@H](CO)C(=O)N[C@@H](CC(=O)O)C(=O)N[C@H](C(=O)N[C@@H](CCCNC(=N)N)C(=O)N[C@@H](CCC(N)=O)C(=O)N[C@@H](CCC(N)=O)C(=O)N[C@@H](C)C(=O)N[C@@H](CCCNC(=N)N)C(=O)N[C@@H](CCCCN)C(=O)N[C@@H](CC(C)C)C(=O)N[C@@H](CC(C)C)C(N)=O)[C@@H](C)O)[C@@H](C)O) [Compound 92] 8.3
